B1: RAB22A (parent)
chain: FVEDSFDPNINPTIGASFMTKTVQ

Variants of: B1
assay.overview: protein stability index of a GFP-peptide fusion (GPS, HEK-293T) (PSI 1-6); higher = more stable;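 note: lentivirally expressed fusions sorted by FACS into six bins by GFP to DsRed ratio, PSI derived from sequencing read proportions per bin multiplied by bin number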
assay.conditions: c terminus: a fixed tail appended
protein stability index overview
The response must contain the number and no unit.

Some variants with recorded protein stability index:
[
  {
    "variant.name": "D7T",
    "protein stability index": 2.15
  },
  {
    "variant.name": "D7E",
    "protein stability index": 2.36
  },
  {
    "variant.name": "P12Y",
    "protein stability index": 2.37
  }
]

Problem: State the recorded protein stability index for this entry: "F6S"
Solution: 2.99

Problem: How about this variant: "A16L"
Solution: 1.81
